Values were extracted from patent US20240376108A1.

Experiment: Solubility experiment in different media
Type: physicochemical
Settings: simulated gastric fluid, thermodynamic from solid, USP Buffer pH 1, room temperature
Procedure: The vials were placed on a spin mixer overnight at room temperature. After 24 hours, the sample solution was filtered through a 0.45 μm mixed aqueous fiber membrane. The content of the compound in the filtrate was determined by HPLC. [table]
reportedMetric: solubility at 24 h (µg/mL)
Field format: number, assumed µg/mL, no unit text.

Dear colleague, please send me the reported solubility at 24 h for CS(=O)(=O)O.N#Cc1cc2n(CC(=O)Nc3ccc(F)cn3)c(=O)c3ccc(C(F)(F)F)nc3n2n1 [Methanesulfonate (crystal form A)] when you can.
2.3

###

Assay: Hygroscopicity experiment (DVS)
Format: physicochemical
Conditions: Cycle 1, target relative humidity 40.0%, 25° C.
reportedMetric: % percentage of mass change, Sorption
Remember to follow the number with its unit.

[
  {
    "compound": "Br.N#Cc1cc2n(CC(=O)Nc3ccc(F)cn3)c(=O)c3ccc(C(F)(F)F)nc3n2n1 [Hydrobromide (crystal form B)]",
    "observedValue": "4.140%"
  },
  {
    "compound": "CCS(=O)(=O)O.N#Cc1cc2n(CC(=O)Nc3ccc(F)cn3)c(=O)c3ccc(C(F)(F)F)nc3n2n1 [Ethanesulfonate (crystal form A)]",
    "observedValue": "0.183%"
  },
  {
    "compound": "CS(=O)(=O)O.N#Cc1cc2n(CC(=O)Nc3ccc(F)cn3)c(=O)c3ccc(C(F)(F)F)nc3n2n1 [Methanesulfonate (crystal form A)]",
    "observedValue": "0.179%"
  },
  {
    "compound": "N#Cc1cc2n(CC(=O)Nc3ccc(F)cn3)c(=O)c3ccc(C(F)(F)F)nc3n2n1.O=S(=O)(O)O [Sulfate (crystal form B)]",
    "observedValue": "0.303%"
  }
]

Moving on to another compound below.
Dear colleague, please send me the reported % percentage of mass change, Sorption for Cl.N#Cc1cc2n(CC(=O)Nc3ccc(F)cn3)c(=O)c3ccc(C(F)(F)F)nc3n2n1 [Hydrochloride (crystal form A)] when you can.
7.346%

###

Assay: Solubility experiment in different media
Type: physicochemical
Conditions: fassgf or other biorelevant, thermodynamic from solid, FaSSGF, room temperature
reportedMetric: solubility at 24 h

Dear colleague, please send me the reported solubility at 24 h for CS(=O)(=O)O.N#Cc1cc2n(CC(=O)Nc3ccc(F)cn3)c(=O)c3ccc(C(F)(F)F)nc3n2n1 [Methanesulfonate (crystal form A)] when you can.
3.3 µg/mL

###

Assay: Hygroscopicity experiment (DVS)
Assay type: physicochemical
Conditions: Cycle 2, target relative humidity 10.0%, 25° C.
% percentage of mass change, Sorption for assorted molecules
Field format: number, assumed %, no unit text.

# example entries with known answers
[
  {
    "molecule": "CS(=O)(=O)O.N#Cc1cc2n(CC(=O)Nc3ccc(F)cn3)c(=O)c3ccc(C(F)(F)F)nc3n2n1 [Methanesulfonate (crystal form A)]",
    "unitsLabel": "%",
    "observedValue": 0.024
  },
  {
    "molecule": "Br.N#Cc1cc2n(CC(=O)Nc3ccc(F)cn3)c(=O)c3ccc(C(F)(F)F)nc3n2n1 [Hydrobromide (crystal form B)]",
    "unitsLabel": "%",
    "observedValue": 0.070
  },
  {
    "molecule": "Cl.N#Cc1cc2n(CC(=O)Nc3ccc(F)cn3)c(=O)c3ccc(C(F)(F)F)nc3n2n1 [Hydrochloride (crystal form A)]",
    "unitsLabel": "%",
    "observedValue": 0.095
  },
  {
    "molecule": "CCS(=O)(=O)O.N#Cc1cc2n(CC(=O)Nc3ccc(F)cn3)c(=O)c3ccc(C(F)(F)F)nc3n2n1 [Ethanesulfonate (crystal form A)]",
    "unitsLabel": "%",
    "observedValue": 0.037
  }
]

Moving on to another molecule below.
Dear colleague, please send me the reported % percentage of mass change, Sorption for N#Cc1cc2n(CC(=O)Nc3ccc(F)cn3)c(=O)c3ccc(C(F)(F)F)nc3n2n1.O=S(=O)(O)O [Sulfate (crystal form B)] when you can.
0.070
